Assignment: determine reported half-life for the given compounds.
Test: Elimination half life in Beagle dog at 1 mg/kg, iv
Format: ADME, organism-based, Canis lupus familiaris
Design: dose 1 mg/kg, route intravenous
Conditions: in vivo, read-out: beta t1/2 (converted)

Problem: Identify measured half-life corresponding to CC1=C2C[C@H]3[C@@H](CC[C@@H]4C[C@H](NS(C)(=O)=O)CC[C@@]43C)[C@@H]2CC[C@@]2(C1)O[C@@H]1C[C@H](C)CN[C@H]1[C@H]2C [PATIDEGIB]
Solution: 15.5 h

Problem: Retrieve half-life measured for CC1=C2C[C@H]3[C@@H](CC[C@@H]4Cc5[nH]ncc5C[C@@]43C)[C@@H]2CC[C@@]2(C1)O[C@@H]1C[C@H](C)CN[C@H]1[C@H]2C and print it.
Solution: 6.8 h

Problem: Assign half-life to the following record: CC1=C2C[C@H]3[C@@H](CCC4=CC(=O)CC[C@@]43C)[C@@H]2CC[C@@]2(C1)O[C@@H]1C[C@H](C)CN[C@H]1[C@H]2C
Solution: 2.2 h

Problem: Using the record for CC1=C2C[C@H]3[C@@H](CC[C@@H]4CNC(=O)CC[C@@]43C)[C@@H]2CC[C@@]2(C1)O[C@@H]1C[C@H](C)CN[C@H]1[C@H]2C , state its measured half-life.
Solution: 6.5 h

----------
Test: Oral bioavailability in CD1 mouse at 5 mg/kg
Assay type: ADME, organism-based
Details: in vivo
Recorded metric: bioavailability (%)
# value in %; strip the unit string

Problem: Specify reported bioavailability for the compound shown: CC1=C2C[C@H]3[C@@H](CC[C@@H]4C[C@H](NS(C)(=O)=O)CC[C@@]43C)[C@@H]2CC[C@@]2(C1)O[C@@H]1C[C@H](C)CN[C@H]1[C@H]2C [PATIDEGIB]
Solution: 100

Problem: Return the recorded bioavailability value; entry: CC1=C2C[C@H]3[C@@H](CC[C@@H]4Cc5[nH]ncc5C[C@@]43C)[C@@H]2CC[C@@]2(C1)O[C@@H]1C[C@H](C)CN[C@H]1[C@H]2C
Solution: 52

Problem: Identify measured bioavailability associated with CC1=C2C[C@H]3[C@@H](CCC4=CC(=O)CC[C@@]43C)[C@@H]2CC[C@@]2(C1)O[C@@H]1C[C@H](C)CN[C@H]1[C@H]2C
Solution: 79

Problem: // fetch bioavailability given entry CC1=C2C[C@H]3[C@@H](CC[C@@H]4CNC(=O)CC[C@@]43C)[C@@H]2CC[C@@]2(C1)O[C@@H]1C[C@H](C)CN[C@H]1[C@H]2C
Solution: 100

----------
Assay: Plasma clearance in Beagle dog at 1 mg/kg, iv
Assay type: ADME, organism-based, Canis lupus familiaris
Set-up: dose 1 mg/kg, route intravenous
Recorded metric: clearance (mL/min/kg)
Note: unit mL/min/kg is implicit; provide only the numeric part.

Problem: Identify measured clearance associated with CC1=C2C[C@H]3[C@@H](CC[C@@H]4Cc5[nH]ncc5C[C@@]43C)[C@@H]2CC[C@@]2(C1)O[C@@H]1C[C@H](C)CN[C@H]1[C@H]2C
Solution: 10

Problem: Hello, please tell me recorded clearance for this one: CC1=C2C[C@H]3[C@@H](CC[C@@H]4C[C@H](NS(C)(=O)=O)CC[C@@]43C)[C@@H]2CC[C@@]2(C1)O[C@@H]1C[C@H](C)CN[C@H]1[C@H]2C [PATIDEGIB]
Solution: 11

Problem: Identify clearance associated with the compound CC1=C2C[C@H]3[C@@H](CCC4=CC(=O)CC[C@@]43C)[C@@H]2CC[C@@]2(C1)O[C@@H]1C[C@H](C)CN[C@H]1[C@H]2C
Solution: 78.3

Problem: Report clearance, nothing else, for this compound: CC1=C2C[C@H]3[C@@H](CC[C@@H]4CNC(=O)CC[C@@]43C)[C@@H]2CC[C@@]2(C1)O[C@@H]1C[C@H](C)CN[C@H]1[C@H]2C
Solution: 5.5
